Cited source: the MegaScale stability set (Tsuboyama et al. 2023)

B1: HEEH_KT_rd6_0007 (parent)
chain: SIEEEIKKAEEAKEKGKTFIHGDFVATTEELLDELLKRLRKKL

variants of: B1; test: folding stability dG (cDNA display proteolysis); higher = more stable; conditions: PBS, room temperature
Entries annotated with measured folding stability dG
measured_parameter: folding stability dG

changes=T28E value_measured="0.679 kcal/mol"
changes=K7D value_measured="0.626 kcal/mol"
changes=L32V value_measured="0.661 kcal/mol"
